Target: T1, Human IL-17A重组蛋白 (IL-17A-His) (human, UniProt Q16552 24-155, biotin label in the ELISA of Example 2 (Biotin-IL-17A-His); site not stated)
T1 construct: also called IL-17A抗原蛋白; Biotin-IL-17A-His
T1 sequence (Q16552 other isoform, or with tags, fused parts or gaps limits assumed): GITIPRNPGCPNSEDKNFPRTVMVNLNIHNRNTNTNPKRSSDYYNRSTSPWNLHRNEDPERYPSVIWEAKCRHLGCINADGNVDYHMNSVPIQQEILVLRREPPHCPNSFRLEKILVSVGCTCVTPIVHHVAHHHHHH
Assay: ELISA, antibody coated at 2 ug/mL, Biotin-IL-17A-His titrated from 10 ug/mL (5-fold, 7 points), HRP-streptavidin
Collected EC50 values appear next to each entry.

{"columns": ["binder", "EC50 [µg/mL]"],
 "data": [
  ["Ixekizumab (antibody, human IgG4 S228P, kappa, V domains shown, Made in house from the variable regions cloned into pcDNA3.4-hIgG4 and pcDNA3.4-hIgKc vectors; positive control; also called 阳性对照抗体Ixekizumab; 对照抗体Ixekizumab) VH: QVQLVQSGAEVKKPGSSVKVSCKASGYSFTDYHIHWVRQAPGQGLEWMGVINPMYGTTDYNQRFKGRVTITADESTSTAYMELSSLRSEDTAVYYCARYDYFTGTGVYWGQGTLVTVSS VL: DIVMTQTPLSLSVTPGQPASISCRSSRSLVHSRGNTYLHWYLQKPGQSPQLLIYKVSNRFIGVPDRFSGSGSGTDFTLKISRVEAEDVGVYYCSQSTHLPFTFGQGTKLEIKR", 10.1],
  ["串联纳米抗体C11-1-F2 (Fc fusion) DVQLVESGGGLVQPGGSLRLSCAASESLLRLYAMGWYRQLPGQEREWVAIHTTSDTTNYRDSVKGRFTLSRDVATNTIYLQMTSLKPEDTAVYYCHVTSMRDSQNYWGQGTQVTVSSGGGGSGGGGSGGGGSQVQLVESGGGLVQPGGSMRLSCAASTIGLSIYSGAWYRQAAGKQRELVARITRRGVTNYADSVKGRFTISKDNAKNTVSLEMNSLKPEDTAVYYCNVGGEDGYWGQGTQVTVSS", 0.745],
  ["单域抗体(2)(1-F2) (Fc fusion) QVQLVESGGGLVQPGGSMRLSCAASTIGLSIYSGAWYRQAAGKQRELVARITRRGVTNYADSVKGRFTISKDNAKNTVSLEMNSLKPEDTAVYYCNVGGEDGYWGQGTQVTVSS", 4.04]
]}
